Tested on: 883617-216-R-J1-PDC complex spheroid viability
ASSAY NOTES: Anticancer human tumor 883617-216-R-J1-PDC patient-derived bladder carcinoma cell line growth inhibition
ASSAY SETUP: second compound 0.316 µM; first compound 0.001 µM; stronger effect = lower value
Catalogue of viability, T/C values
Could you give me the number in %? Just the number is fine.

- COMPOUND: "Cn1ncnc1C1c2n[nH]c(=O)c3cc(F)cc(c23)NC1c1ccc(F)cc1 (stereo not drawn) + NC1CCC(NC2CC2c2ccccc2)CC1"
  RESULT TYPE: "viability, T/C"
  UNIT SPEC: "%"
  MEASURED VALUE: 111

For record CC(C)CC(NC(=O)C(Cc1ccccc1)NC(=O)c1cnccn1)B(O)O (stereo not drawn) + NC1CCC(NC2CC2c2ccccc2)CC1 the listed viability, T/C is 91.8

For record CC(C)CC(NC(=O)CNC(=O)c1cc(Cl)ccc1Cl)B1OC(=O)CC(CC(=O)O)(C(=O)O)O1 (stereo not drawn) + NC1CCC(NC2CC2c2ccccc2)CC1 the listed viability, T/C is 110

For record Cn1ncnc1C1c2n[nH]c(=O)c3cc(F)cc(c23)NC1c1ccc(F)cc1 (stereo not drawn) + NC1CC1c1ccc(-c2cccc(O)c2)cc1 the listed viability, T/C is 103

For record CC[C@@]1(O)C(=O)OCc2c1cc1n(c2=O)Cc2cc3c(CN(C)C)c(O)ccc3nc2-1 + NC1CCC(NC2CC2c2ccccc2)CC1 the listed viability, T/C is 104

For record CC(C)CC(NC(=O)CNC(=O)c1cc(Cl)ccc1Cl)B1OC(=O)CC(CC(=O)O)(C(=O)O)O1 (stereo not drawn) + NC1CC1c1ccc(-c2cccc(O)c2)cc1 the listed viability, T/C is 121

For record CC[C@@]1(O)C(=O)OCc2c1cc1n(c2=O)Cc2cc3c(CN(C)C)c(O)ccc3nc2-1 + NC1CC1c1ccc(-c2cccc(O)c2)cc1 the listed viability, T/C is 73.4

For record CC(C)CC(NC(=O)C(Cc1ccccc1)NC(=O)c1cnccn1)B(O)O (stereo not drawn) + NC1CC1c1ccc(-c2cccc(O)c2)cc1 the listed viability, T/C is 43.1

----------
Catalogue of IC50 values
System: 883617-216-R-J1-PDC complex spheroid viability
ASSAY NOTES: Anticancer human tumor 883617-216-R-J1-PDC cell line growth inhibition;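 also: exposure lasted seven days after three days of spheroid growth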
ASSAY SETUP: curve of first compound; second compound 10 µM
Could you give me the number in nM? Just the number is fine.

Would you please look over these solved cases?
- COMPOUND: "COc1ccc([C@@H](O)c2cc(-c3ncnc4cc(N5CCOCC5)ccc34)c(F)cc2Cl)nn1 + NC1CC1c1ccc(-c2cccc(O)c2)cc1"
  RESULT TYPE: "IC50"
  UNIT SPEC: "nM"
  MEASURED VALUE: 304
- COMPOUND: "O=C(C=Cn1cnc(-c2cc(C(F)(F)F)cc(C(F)(F)F)c2)n1)NNc1cnccn1 + NC1CCC(NC2CC2c2ccccc2)CC1"
  RESULT TYPE: "IC50"
  UNIT SPEC: "nM"
  MEASURED VALUE: 20.7
- COMPOUND: "Cn1ncnc1C1c2n[nH]c(=O)c3cc(F)cc(c23)NC1c1ccc(F)cc1 (stereo not given) + NC1CC1c1ccc(-c2cccc(O)c2)cc1"
  RESULT TYPE: "IC50"
  UNIT SPEC: "nM"
  MEASURED VALUE: 6.41
- COMPOUND: "CC[C@@]1(O)C(=O)OCc2c1cc1n(c2=O)Cc2cc3c(CN(C)C)c(O)ccc3nc2-1 + NC1CC1c1ccc(-c2cccc(O)c2)cc1"
  RESULT TYPE: "IC50"
  UNIT SPEC: "nM"
  MEASURED VALUE: 0.862
- COMPOUND: "Nc1ncn(C2CC(O)C(CO)S2)c(=O)n1 (stereo not given) + NC1CC1c1ccc(-c2cccc(O)c2)cc1"
  RESULT TYPE: "IC50"
  UNIT SPEC: "nM"
  MEASURED VALUE: 18.5
- COMPOUND: "Nc1ccccc1NC(=O)c1ccc(CNC(=O)OCc2cccnc2)cc1 + NC1CCC(NC2CC2c2ccccc2)CC1"
  RESULT TYPE: "IC50"
  UNIT SPEC: "nM"
  MEASURED VALUE: 235

Considering CC[C@@]1(O)C(=O)OCc2c1cc1n(c2=O)Cc2cc3c(CN(C)C)c(O)ccc3nc2-1 + NC1CCC(NC2CC2c2ccccc2)CC1 , its IC50 with 883617-216-R-J1-PDC complex spheroid viability was recorded as 7.25

Considering CC1COCCN1c1cc(C2(S(C)(=N)=O)CC2)nc(-c2ccnc3[nH]ccc23)n1 (stereo not given) + NC1CCC(NC2CC2c2ccccc2)CC1 , its IC50 with 883617-216-R-J1-PDC complex spheroid viability was recorded as 1520

----------
System: 883617-216-R-J1-PDC complex spheroid viability
ASSAY NOTES: Anticancer human tumor 883617-216-R-J1-PDC cell line growth inhibition;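 also: exposure lasted seven days after three days of spheroid growth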;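 as to viability, T/C: 100% = DMSO vehicle control luminescence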
ASSAY SETUP: second compound 3.16 µM; first compound 0.003 µM; stronger effect = lower value
RESULT TYPE: viability, T/C (%)
Could you give me the number in %? Just the number is fine.

Would you please look over these solved cases?
- COMPOUND: "Nc1ncn(C2CC(O)C(CO)S2)c(=O)n1 (stereo unspecified) + NC1CCC(NC2CC2c2ccccc2)CC1"
  UNIT SPEC: "%"
  MEASURED VALUE: 106
- COMPOUND: "Nc1ccn(C2OC(CO)C(O)C2(F)F)c(=O)n1 (stereo unspecified) + NC1CCC(NC2CC2c2ccccc2)CC1"
  UNIT SPEC: "%"
  MEASURED VALUE: 21.7
- COMPOUND: "Nc1ccn(C2OC(CO)C(O)C2(F)F)c(=O)n1 (stereo unspecified) + NC1CC1c1ccc(-c2cccc(O)c2)cc1"
  UNIT SPEC: "%"
  MEASURED VALUE: 20.8
- COMPOUND: "CCc1c2c(nc3ccc(O)cc13)-c1cc3c(c(=O)n1C2)COC(=O)[C@]3(O)CC + NC1CCC(NC2CC2c2ccccc2)CC1"
  UNIT SPEC: "%"
  MEASURED VALUE: 25.7
- COMPOUND: "Nc1ncn(C2CC(O)C(CO)S2)c(=O)n1 (stereo unspecified) + NC1CC1c1ccc(-c2cccc(O)c2)cc1"
  UNIT SPEC: "%"
  MEASURED VALUE: 95.8

Considering CCc1c2c(nc3ccc(O)cc13)-c1cc3c(c(=O)n1C2)COC(=O)[C@]3(O)CC + NC1CC1c1ccc(-c2cccc(O)c2)cc1 , its viability, T/C with 883617-216-R-J1-PDC complex spheroid viability was recorded as 18.4

----------
Tested on: 883617-216-R-J1-PDC complex spheroid viability
ASSAY NOTES: Anticancer human tumor 883617-216-R-J1-PDC cell line growth inhibition;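 also: exposure lasted seven days after three days of spheroid growth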;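 as to viability, T/C: 100% = DMSO vehicle control luminescence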
ASSAY SETUP: second compound 0.316 µM; first compound 1 µM; stronger effect = lower value
RESULT TYPE: viability, T/C (%)
Could you give me the number in %? Just the number is fine.

Would you please look over these solved cases?
- COMPOUND: "O=C(C=Cn1cnc(-c2cc(C(F)(F)F)cc(C(F)(F)F)c2)n1)NNc1cnccn1 + NC1CC1c1ccc(-c2cccc(O)c2)cc1"
  MEASURED VALUE: 14.3
- COMPOUND: "COc1ccc([C@@H](O)c2cc(-c3ncnc4cc(N5CCOCC5)ccc34)c(F)cc2Cl)nn1 + NC1CCC(NC2CC2c2ccccc2)CC1"
  MEASURED VALUE: 53.2
- COMPOUND: "CC1(C)CCC(CN2CCN(c3ccc(C(=O)NS(=O)(=O)c4ccc(NCC5CCOCC5)c([N+](=O)[O-])c4)c(Oc4cnc5[nH]ccc5c4)c3)CC2)=C(c2ccc(Cl)cc2)C1 + NC1CCC(NC2CC2c2ccccc2)CC1"
  MEASURED VALUE: 109

Next compound, viability, T/C to be filled in.
For record O=C(c1cc(Cc2n[nH]c(=O)c3ccccc23)ccc1F)N1CCN(C(=O)C2CC2)CC1 + NC1CCC(NC2CC2c2ccccc2)CC1 the listed viability, T/C is 76.2

----------
Test system: 883617-216-R-J1-PDC complex spheroid viability
ASSAY NOTES: Anticancer human tumor 883617-216-R-J1-PDC cell line growth inhibition;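 also: exposure lasted seven days after three days of spheroid growth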;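 as to viability, T/C: 100% = DMSO vehicle control luminescence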
ASSAY SETUP: second compound 0.1 µM; first compound 0.316 µM; stronger effect = lower value
RESULT TYPE: viability, T/C

For record O=C(C=Cn1cnc(-c2cc(C(F)(F)F)cc(C(F)(F)F)c2)n1)NNc1cnccn1 + NC1CCC(NC2CC2c2ccccc2)CC1 the listed viability, T/C is 28.9%

For record CC1COCCN1c1cc(C2(S(C)(=N)=O)CC2)nc(-c2ccnc3[nH]ccc23)n1 (configuration not stated) + NC1CCC(NC2CC2c2ccccc2)CC1 the listed viability, T/C is 78.9%

For record COc1cc(Nc2ncc3c(n2)-c2ccc(Cl)cc2C(c2c(F)cccc2OC)=NC3)ccc1C(=O)O + NC1CC1c1ccc(-c2cccc(O)c2)cc1 the listed viability, T/C is 37.3%

For record CC(C)c1c(-c2ccccc2)nc2c(C#N)c[nH]n2c1=O + NC1CC1c1ccc(-c2cccc(O)c2)cc1 the listed viability, T/C is 119%
